Molecular target: T1, soluble cynomolgus GPNMB (recombinant extracellular domain) (cynomolgus, UniProt Q14956 23-499 (human entry), limits assumed)
T1 chain: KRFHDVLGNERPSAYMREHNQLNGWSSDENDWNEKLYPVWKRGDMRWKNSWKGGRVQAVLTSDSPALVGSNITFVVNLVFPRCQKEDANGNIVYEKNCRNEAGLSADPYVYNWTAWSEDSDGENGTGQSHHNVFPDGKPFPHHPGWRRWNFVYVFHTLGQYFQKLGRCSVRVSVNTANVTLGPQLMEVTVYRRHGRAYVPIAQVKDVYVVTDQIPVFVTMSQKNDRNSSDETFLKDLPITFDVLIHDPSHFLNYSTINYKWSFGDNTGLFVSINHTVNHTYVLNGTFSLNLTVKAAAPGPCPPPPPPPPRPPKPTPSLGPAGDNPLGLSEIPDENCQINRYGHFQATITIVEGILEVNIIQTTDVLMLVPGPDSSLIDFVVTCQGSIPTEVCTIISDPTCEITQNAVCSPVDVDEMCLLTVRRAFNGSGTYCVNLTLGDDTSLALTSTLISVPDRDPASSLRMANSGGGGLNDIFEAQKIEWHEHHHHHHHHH
Assay: SPR Biacore, IgG captured
experimental_readout: koff

binder="anti-GPNMB antibody GPN-96 (antibody, V domains shown) VH: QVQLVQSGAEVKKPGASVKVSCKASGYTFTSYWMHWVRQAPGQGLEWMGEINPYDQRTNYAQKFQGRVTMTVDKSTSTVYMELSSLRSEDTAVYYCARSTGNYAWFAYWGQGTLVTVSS VL: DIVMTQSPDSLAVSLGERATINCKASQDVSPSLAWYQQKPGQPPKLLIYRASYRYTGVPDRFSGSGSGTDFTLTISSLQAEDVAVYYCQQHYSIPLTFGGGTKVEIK" experimental_readout=koff assay_value="0.00025 s⁻¹"
binder="anti-GPNMB antibody GPN-98 (antibody, V domains shown) VH: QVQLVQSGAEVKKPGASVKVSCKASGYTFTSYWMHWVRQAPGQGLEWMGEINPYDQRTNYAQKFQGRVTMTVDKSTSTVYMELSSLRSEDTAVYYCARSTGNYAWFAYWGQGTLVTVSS VL: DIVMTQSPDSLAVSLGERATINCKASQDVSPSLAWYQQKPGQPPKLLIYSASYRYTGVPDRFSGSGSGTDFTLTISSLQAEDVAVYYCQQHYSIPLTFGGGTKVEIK" experimental_readout=koff assay_value="0.0011 s⁻¹"
binder="anti-GPNMB antibody GPN-88 (antibody, V domains shown) VH: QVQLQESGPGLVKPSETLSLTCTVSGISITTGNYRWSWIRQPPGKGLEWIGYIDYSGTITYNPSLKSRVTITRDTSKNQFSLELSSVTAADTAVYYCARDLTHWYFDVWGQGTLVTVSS VL: DIVMTQSPDSLAVSLGERATINCKSSRSVDYYGIGFLNWYQQKPGQPPKLLIYATSHQGSGVPDRFSGSGSGTDFTLTISSLQAEDVAVYYCQQQKHVPPTFGGGTKVEIK" experimental_readout=koff assay_value="0.00061 s⁻¹"

// provenance: patent US20250270343A1
